B1: tRNA (parent)
chain: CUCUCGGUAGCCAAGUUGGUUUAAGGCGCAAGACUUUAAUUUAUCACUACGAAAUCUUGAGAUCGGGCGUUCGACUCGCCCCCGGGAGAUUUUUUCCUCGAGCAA

Variants of: B1
Assay: nonsense suppression (GFP-seq) (ratio to wild type); higher = more function; SUP4oc tRNA, yeast GFP reporter sort-seq
Variants at the floor of the assay were thinned out.
Would you mind labelling by nonsense suppression? At or over 0.2 is Yes, under is No.

Check the entry A9U C11U G32C C34G A54U : does nonsense suppression equal or exceed 0.2?
No

Further cases:
Does nonsense suppression meet or surpass 0.2 for U16C U21G A31G G32C G69A U71C C75A G86A ?
No

Can you handle A24G G59A next?
No

Subsequent entry: G28A U76G
No

And what about the variant G10A A60U C68A ?
No

// repeat for C1U U2C A54C G61U U76A and report
No

Check C1A U2A U35C U70A too.
No

Same question for C79A C83A please.
No

Entry to check: U8G U17G G69U C80G
No

// same read-out, input: G15C A33U G61A
No

How about A30U C79G ?
No

Thanks! And G18U G19A ?
No

Query U2C C3U C12U G15A next
No

How about A9C U58G G61U ?
No

Entry to check: C1A C56G A62U C80G C82A
No

Entry G10A G28C G61C please
No

Next variant up: G6U C82A A87U
No

Same thing, different variant: C12U G84U
No

Now consider G28U A54U and answer again.
No

Proceed to U16A C34G U63C C77G G86C
No

Again, but for U4C U63C G67A
No

Queued: U8G G15C
No

Now give it for G15A U22C too.
No

Entry source: the RNAGym collection of RNA variant scans (doi:10.1101/gad.245936.114)
